Here the recorded Ki is given for each entry.
testSystem: human recombinant sGC enzyme (Homo sapiens (Human), UniProt Q02108+Q02153)
testName: Size Exclusion Chromatography (SEC) competition binding assay using [3H] Ex-77B as the radioligand
statedConditions: [3H] Ex-77B radioligand, 24 hours at 37° C.
propertyLabel: Ki

compound: CC1(c2nc(-c3ccc(C(=O)O)cc3)cs2)C(=O)Nc2nc(-c3nn(Cc4ccccc4F)c4cc(Cl)ccc34)nc(N)c21 (stereo not drawn) [Example 165A]
dataValue: 0.081 nM
--
compound: CC1(c2cccc(C(=O)O)c2)C(=O)Nc2nc(-c3nn(CCC(F)(F)C(F)(F)F)c4cc(Cl)ccc34)nc(N)c21 (stereo not drawn) [Example 26B]
dataValue: 0.266 nM
--
compound: CC(C)(Cc1csc([C@]2(C)C(=O)Nc3nc(-c4nn(Cc5ccccc5F)c5cc(Cl)ccc45)nc(N)c32)n1)c1nn[nH]n1 [Example 238A]
dataValue: 0.095 nM
--
compound: CC(C)(Cc1ccc(C2(C)C(=O)Nc3nc(-c4nn(CCC(F)(F)C(F)(F)F)c5cc(Cl)ccc45)nc(N)c32)cc1)C(=O)O (stereo not drawn) [Example 33B]
dataValue: 0.594 nM
--
compound: CC1CCC(Cn2nc(-c3nc(N)c4c(n3)NC(=O)C4(C)c3nc(CC(C)(C)C(=O)O)co3)c3cccnc32)CC1 (single isomer, unassigned) [Example 126AB]
dataValue: 0.077 nM
--
compound: CC(C)(Cc1csc([C@]2(C)C(=O)Nc3nc(-c4nn(CC5CCCCO5)c5ncccc45)nc(N)c32)n1)C(=O)O (single isomer, unassigned) [Example 123AB]
dataValue: 0.874 nM
--
compound: CC1(c2cc(C(=O)O)ccn2)C(=O)Nc2nc(-c3nn(Cc4ccccc4F)c4cc(Cl)ccc34)nc(N)c21 (stereo not drawn) [Example 219A]
dataValue: 0.183 nM
--
compound: CC1(c2nc(CC(=O)O)co2)C(=O)Nc2nc(-c3nn(Cc4ccccc4F)c4ccccc34)nc(N)c21 (stereo not drawn) [Example 203A]
dataValue: 0.071 nM
--
compound: CC1(c2cn(CC(=O)O)nn2)C(=O)Nc2nc(-c3nn(CCC(F)(F)C(F)(F)F)c4cc(Cl)ccc34)nc(N)c21 (stereo not drawn) [Example 28B]
dataValue: 0.536 nM
--
compound: COCCn1nc(-c2nc(N)c3c(n2)NC(=O)[C@@]3(C)c2ccc(CCC(=O)O)cc2)c2ccc(Cl)cc21 (single isomer, unassigned) [Example 40B]
dataValue: 4.38 nM
--
compound: CC1(c2cccc(-c3nn[nH]n3)c2)C(=O)Nc2nc(-c3nn(CCC(F)(F)C(F)(F)F)c4ncccc34)nc(N)c21 (single isomer, unassigned) [Example 252B]
dataValue: 0.292 nM
--
compound: CC1(c2ccc(CCS(=O)(=O)O)cc2)C(=O)Nc2nc(-c3nn(Cc4ccccc4F)c4cc(Cl)ccc34)nc(N)c21 (single isomer, unassigned) [Example 258B]
dataValue: 0.08 nM
--
compound: CC(Cc1ccc(C2(C)C(=O)Nc3nc(-c4nn(CCCC(F)(F)F)c5ncccc45)nc(N)c32)cc1)C(=O)O (stereo not drawn) [Example 17AB]
dataValue: 0.936 nM
--
compound: Cc1ccnc(Cn2nc(-c3nc(N)c4c(n3)NC(=O)[C@@]4(C)c3nc(CC(C)(C)C(=O)O)cs3)c3ccc(Cl)cc32)c1F [Example 216A]
dataValue: 0.11 nM
--
compound: CC(C)(Cn1cc(C2(C)C(=O)Nc3nc(-c4nn(Cc5ccccc5F)c5cc(F)ccc45)nc(N)c32)cn1)C(=O)O (stereo not drawn) [Example 192A]
dataValue: 0.116 nM
--
compound: C[C@@]1(c2ccc(CCc3nn[nH]n3)cc2)C(=O)Nc2nc(-c3nn(CCC(F)(F)C(F)(F)F)c4cc(Cl)ccc34)nc(N)c21 (single isomer, unassigned) [Example 237B]
dataValue: 0.193 nM
--
compound: CC(C)(Cc1csc([C@]2(C)C(=O)Nc3nc(-c4nn(CCCC(F)(F)F)c5ncccc45)nc(N)c32)n1)C(=O)O [Example 87B]
dataValue: 0.785 nM
--
compound: Nc1nc(-c2nn(Cc3ccccc3F)c3ncccc23)nc2c1C(c1ccc(CCC(=O)O)cc1)(C1CC1)C(=O)N2 (stereo not drawn) [Example 148A]
dataValue: 0.123 nM

* * *

Here the recorded Emax is given for each entry.
testSystem: sGC α1/β1 heterodimer (Homo sapiens (Human), UniProt Q02108+Q02153)
testName: Cell-based sGC functional assay (cyclic GMP assay for sGC activator: CASA assay)
statedConditions: CHO-K1, activity expressed as percentage of compound A (standard); CHO-K1/sGC cells; read-out: % Activation

molecule: CC(C)(Cc1csc([C@]2(C)C(=O)Nc3nc(-c4nn(CC5CCCC5)c5cc(Cl)ccc45)nc(N)c32)n1)C(=O)O [Example 162A]
testSystem: sGC α1/β1 heterodimer (Homo sapiens (Human), UniProt Q02108+Q02153)
Emax: 76.5%
//
molecule: CCCCn1nc(-c2nc(N)c3c(n2)NC(=O)[C@@]3(C)c2ccc(CCC(=O)O)cc2)c2ccc(C)nc21 [Example 111B]
testSystem: sGC α1/β1 heterodimer (Homo sapiens (Human), UniProt Q02108+Q02153)
Emax: 86%
//
molecule: CC1(c2cccc(C(=O)O)c2)C(=O)Nc2nc(-c3nn(Cc4ccccc4F)c4cc(F)ccc34)nc(N)c21 (centres unmarked) [Example 191B]
testSystem: sGC α1/β1 heterodimer (Homo sapiens (Human), UniProt Q02108+Q02153)
Emax: 114%
//
molecule: CC1(c2ccc(CC(=O)O)cc2)C(=O)Nc2nc(-c3nn(CCC(F)(F)C(F)(F)F)c4ncccc34)nc(N)c21 (centres unmarked) [Example 118A]
testSystem: sGC α1/β1 heterodimer (Homo sapiens (Human), UniProt Q02108+Q02153)
Emax: 86%
//
molecule: CC(C)(Cc1coc(C2(C)C(=O)Nc3nc(-c4nn(Cc5ccccc5F)c5ccc(Cl)cc45)nc(N)c32)n1)C(=O)O (centres unmarked) [Example 74A]
testSystem: sGC α1/β1 heterodimer (Homo sapiens (Human), UniProt Q02108+Q02153)
Emax: 94%
//
molecule: C[C@@]1(c2ccc(CCc3nn[nH]n3)cc2)C(=O)Nc2nc(-c3nn(CCC(F)(F)C(F)(F)F)c4cc(Cl)ccc34)nc(N)c21 (single isomer, unassigned) [Example 237B]
testSystem: sGC α1/β1 heterodimer (Homo sapiens (Human), UniProt Q02108+Q02153)
Emax: 93.3%
//
molecule: CC(C)(CCc1coc(C2(C)C(=O)Nc3nc(-c4nn(Cc5cccc(F)c5)c5cc(Cl)ccc45)nc(N)c32)n1)C(=O)O (centres unmarked) [Example 177B]
testSystem: sGC α1/β1 heterodimer (Homo sapiens (Human), UniProt Q02108+Q02153)
Emax: 126%
//
molecule: CC1(c2cccc(CCC(=O)O)c2)C(=O)Nc2nc(-c3nn(Cc4ccccc4F)c4ccccc34)nc(N)c21 (centres unmarked) [Example 53A]
testSystem: sGC α1/β1 heterodimer (Homo sapiens (Human), UniProt Q02108+Q02153)
Emax: 102%
//
molecule: CC1(c2nc(-c3ccc(C(=O)O)cc3)co2)C(=O)Nc2nc(-c3nn(Cc4ccccc4F)c4cc(Cl)ccc34)nc(N)c21 (centres unmarked) [Example 164A]
testSystem: sGC α1/β1 heterodimer (Homo sapiens (Human), UniProt Q02108+Q02153)
Emax: 127%
//
molecule: CC(C)(Cc1coc(C2(C)C(=O)Nc3nc(-c4nn(Cc5ccccc5F)c5ccccc45)nc(N)c32)n1)C(=O)O (centres unmarked) [Example 56A]
testSystem: sGC α1/β1 heterodimer (Homo sapiens (Human), UniProt Q02108+Q02153)
Emax: 116%
//
molecule: CC(C)(Cc1coc(C2(C)C(=O)Nc3nc(-c4nn(Cc5ccccc5F)c5ccc(F)cc45)nc(N)c32)n1)C(=O)O (centres unmarked) [Example 72A]
testSystem: sGC α1/β1 heterodimer (Homo sapiens (Human), UniProt Q02108+Q02153)
Emax: 80%
//
molecule: C[C@@]1(c2ccc(CCC(=O)O)cc2)C(=O)Nc2nc(-c3nn(CC4CCCC4)c4ccccc34)nc(N)c21 [Example 227B]
testSystem: sGC α1/β1 heterodimer (Homo sapiens (Human), UniProt Q02108+Q02153)
Emax: 63.5%
//
molecule: CC(C)(Cc1coc(C2(C)C(=O)Nc3nc(-c4nn(Cc5ccccc5F)c5ncccc45)nc(N)c32)n1)C(=O)O (centres unmarked) [Example 1A]
testSystem: sGC α1/β1 heterodimer (Homo sapiens (Human), UniProt Q02108+Q02153)
Emax: 120%
//
molecule: CC(C)(Cc1coc(C2(C)C(=O)Nc3nc(-c4nn(Cc5c(F)cccc5F)c5cc(Cl)ccc45)nc(N)c32)n1)C(=O)O (centres unmarked) [Example 182A]
testSystem: sGC α1/β1 heterodimer (Homo sapiens (Human), UniProt Q02108+Q02153)
Emax: 92%
//
molecule: CC(C)(CCc1csc(C2(C)C(=O)Nc3nc(-c4nn(Cc5ccccc5F)c5ccccc45)nc(N)c32)n1)C(=O)O (centres unmarked) [Example 204A]
testSystem: sGC α1/β1 heterodimer (Homo sapiens (Human), UniProt Q02108+Q02153)
Emax: 97.8%
//
molecule: CC(C)(Cc1coc(C2(C)C(=O)Nc3nc(-c4nn(Cc5ccc(F)cc5)c5cc(Cl)ccc45)nc(N)c32)n1)C(=O)O (centres unmarked) [Example 173A]
testSystem: sGC α1/β1 heterodimer (Homo sapiens (Human), UniProt Q02108+Q02153)
Emax: 83.4%
//
molecule: C[C@@]1(c2ccc(CCC(=O)O)cc2)C(=O)Nc2nc(-c3nn(Cc4ccccc4F)c4cc(F)ccc34)nc(N)c21 [Example 60B]
testSystem: sGC α1/β1 heterodimer (Homo sapiens (Human), UniProt Q02108+Q02153)
Emax: 128%
//
molecule: CC(C)(Cc1ccc(C2(C)C(=O)Nc3nc(-c4nn(CCCC(F)(F)F)c5cc(Cl)ccc45)nc(N)c32)cc1)C(=O)O (centres unmarked) [Example 42B]
testSystem: sGC α1/β1 heterodimer (Homo sapiens (Human), UniProt Q02108+Q02153)
Emax: 84%
//
molecule: CC(C)(Cc1ccc(C2(C)C(=O)Nc3nc(-c4nn(CCC(F)(F)C(F)(F)F)c5ncccc45)nc(N)c32)cc1)C(=O)O (centres unmarked) [Example 9B]
testSystem: sGC α1/β1 heterodimer (Homo sapiens (Human), UniProt Q02108+Q02153)
Emax: 118%
//
molecule: C[C@@]1(c2ccc(CCC(=O)O)cc2)C(=O)Nc2nc(-c3nn(Cc4c(F)cccc4F)c4cc(Cl)ccc34)nc(N)c21 (single isomer, unassigned) [Example 64B]
testSystem: sGC α1/β1 heterodimer (Homo sapiens (Human), UniProt Q02108+Q02153)
Emax: 101%
